Data provenance: PubChem BioAssay AID1745844

- Tested on: rodent lifetime carcinogenesis bioassay, tumor incidence TD50
- assay protocol: carcinogenic potency in animals, long-term in vivo studies, CPDB compilation (AID 1745844)
- condition: rat; strain Fischer 344; males; in feed; site: pancreas; lesion: acinar-cell carcinoma; dosed 121 weeks; study length 121 weeks
parameter: TD50

## Task Using the record for CCOC(=O)C(C)(C)Oc1ccc(Cl)cc1 , report its TD50.
## Result 1300 mg/kg/day

====

- Tested on: rodent lifetime carcinogenesis bioassay, tumor incidence TD50
- assay protocol: carcinogenic potency in animals, long-term in vivo studies, CPDB compilation (AID 1745844)
- condition: mouse; strain Swiss albino; males; in drinking water; site: pararenal tissue; lesion: angiosarcoma; dosed 52 weeks; study length 52 weeks
parameter: TD50 (mg/kg/day)
Could you give me the number in mg/kg/day? Just the number is fine.

## Task Using the record for CNNC , report its TD50.
## Result 0.18

====

- Test system: rodent lifetime carcinogenesis bioassay, tumor incidence TD50
- assay protocol: carcinogenic potency in animals, long-term in vivo studies, CPDB compilation (AID 1745844)
- condition: rat; strain Charles River CD (Sprague-Dawley); females; in feed; site: liver; lesion: cholangiocarcinoma; dosed 82 weeks; study length 82 weeks
parameter: TD50 (mg/kg/day)
Could you give me the number in mg/kg/day? Just the number is fine.

## Task Using the record for Cc1cc(Cc2ccc(N)c(C)c2)ccc1N , report its TD50.
## Result 96.3

====

- System: rodent lifetime carcinogenesis bioassay, tumor incidence TD50
- assay protocol: carcinogenic potency in animals, long-term in vivo studies, CPDB compilation (AID 1745844)
- condition: mouse; strain B6C3F1; females; inhaled; site: lung; lesion: several types; types named in the paper; dosed 52 weeks; study length 104 weeks
parameter: TD50

## Task Using the record for ClCCl , report its TD50.
## Result 804 mg/kg/day

====

- Test system: rodent lifetime carcinogenesis bioassay, tumor incidence TD50
- assay protocol: carcinogenic potency in animals, long-term in vivo studies, CPDB compilation (AID 1745844)
- condition: rat; strain Wistar; females; in drinking water; site: liver; lesion: hepatocellular tumor; dosed 104 weeks; study length 104 weeks
parameter: TD50

## Task Using the record for O=C1OC(O)C(C(Cl)Cl)=C1Cl (stereo unspecified) , report its TD50.
## Result 14.9 mg/kg/day

====

Below, each entry is listed alongside its reported TD50.
- System: rodent lifetime carcinogenesis bioassay, tumor incidence TD50
- assay protocol: carcinogenic potency in animals, long-term in vivo studies, CPDB compilation (AID 1745844)
- condition: mouse; strain B6C3F1; females; in feed; site: any site (literature study); lesion: several types; types named in the paper; dosed 78 weeks; study length 95 weeks
Could you give me the number in mg/kg/day? Just the number is fine.

Before answering, review these 5 worked examples.
| entry smiles | unit abbrev | value |
| --- | --- | --- |
| Nc1ccc(Cl)cc1N | mg/kg/day | 4090 |
| c1ccc(NNc2ccccc2)cc1 | mg/kg/day | 31.5 |
| CCn1c2ccccc2c2cc(N)ccc21 | mg/kg/day | 41.8 |
| Nc1ccc(Cl)c(N)c1 | mg/kg/day | 15400 |
| [O-]/[N+](=N\O)c1ccccc1 | mg/kg/day | 211 |

## Task Using the record for CN(C)c1ccc(N=NS(=O)(=O)O)cc1 , report its TD50.
## Result 259

## Task Quick one: O=[N+]([O-])c1ccc2nc[nH]c2c1
## Result 429

====

- System: rodent lifetime carcinogenesis bioassay, tumor incidence TD50
- assay protocol: carcinogenic potency in animals, long-term in vivo studies, CPDB compilation (AID 1745844)
- condition: mouse; strain B6C3F1; males; in feed; site: liver; lesion: hepatocellular adenoma + hepatocellular carcinoma; dosed 104 weeks; study length 104 weeks
parameter: TD50

## Task Using the record for Cc1ncc[nH]1 , report its TD50.
## Result 546 mg/kg/day

====

- System: rodent lifetime carcinogenesis bioassay, tumor incidence TD50
- assay protocol: carcinogenic potency in animals, long-term in vivo studies, CPDB compilation (AID 1745844)
- condition: rat; strain Fischer 344; females; in drinking water; site: liver; lesion: cholangiocarcinoma; dosed 55 weeks; study length 105 weeks
parameter: TD50

## Task Using the record for O=NN(CCO)CCO , report its TD50.
## Result 197 mg/kg/day

====

- Tested on: rodent lifetime carcinogenesis bioassay, tumor incidence TD50
- assay protocol: carcinogenic potency in animals, long-term in vivo studies, CPDB compilation (AID 1745844)
- condition: mouse; strain Swiss albino; males; in drinking water; site: all sites; lesion: malignant lymphoma; dosed 87 weeks; study length 87 weeks
parameter: TD50

## Task Using the record for CCCCNNCCCC , report its TD50.
## Result 886 mg/kg/day

====

- Test system: rodent lifetime carcinogenesis bioassay, tumor incidence TD50
- assay protocol: carcinogenic potency in animals, long-term in vivo studies, CPDB compilation (AID 1745844)
- condition: mouse; strain B6C3F1; males; inhaled; site: lung; lesion: alveolar/bronchiolar adenoma; dosed 80 weeks; study length 96 weeks
parameter: TD50

## Task Using the record for C=CC(=C)C , report its TD50.
## Result 4810 mg/kg/day

====

- Tested on: rodent lifetime carcinogenesis bioassay, tumor incidence TD50
- assay protocol: carcinogenic potency in animals, long-term in vivo studies, CPDB compilation (AID 1745844)
- condition: mouse; strain B6C3F1; males; by gavage; site: all sites; lesion: leukemia + lymphoma; dosed 52 weeks; study length 81 weeks
parameter: TD50

## Task Using the record for C[C@]12CC[C@@H]3c4ccc(OC(=O)Cc5ccc(N(CCCl)CCCl)cc5)cc4CC[C@H]3[C@@H]1CC[C@@H]2OC(=O)Cc1ccc(N(CCCl)CCCl)cc1 , report its TD50.
## Result 4.31 mg/kg/day

====

- Tested on: rodent lifetime carcinogenesis bioassay, tumor incidence TD50
- assay protocol: carcinogenic potency in animals, long-term in vivo studies, CPDB compilation (AID 1745844)
- condition: rat; strain Fischer 344; females; by gavage; site: liver + multiple organs; lesion: cholangiocarcinoma + hepatocellular adenoma + hepatocellular carcinoma + mononuclear-cell leukemia; dosed 103 weeks; study length 104 weeks
parameter: TD50 (mg/kg/day)
Could you give me the number in mg/kg/day? Just the number is fine.

## Task What measured TD50 is associated with c1ccoc1 on rodent lifetime carcinogenesis bioassay, tumor incidence TD50?
## Result 0.543

====

- System: rodent lifetime carcinogenesis bioassay, tumor incidence TD50
- assay protocol: carcinogenic potency in animals, long-term in vivo studies, CPDB compilation (AID 1745844)
- condition: rat; strain Fischer 344; females; by gavage; site: adrenal medulla; lesion: pheochromocytoma, benign; dosed 103 weeks; study length 104 weeks
parameter: TD50 (mg/kg/day)
Could you give me the number in mg/kg/day? Just the number is fine.

## Task Using the record for COc1c(Cl)c(Cl)c(Cl)c(Cl)c1Cl , report its TD50.
## Result 174

====

- System: rodent lifetime carcinogenesis bioassay, tumor incidence TD50
- assay protocol: carcinogenic potency in animals, long-term in vivo studies, CPDB compilation (AID 1745844)
- condition: mouse; strain C3HeB/FeJ; females; in feed; site: any site (literature study); lesion: several types; types named in the paper; dosed 104 weeks; study length 104 weeks
parameter: TD50 (mg/kg/day)
Could you give me the number in mg/kg/day? Just the number is fine.

## Task What measured TD50 is associated with CCN(Cc1cccc(S(=O)(=O)O)c1)c1ccc(C(=C2C=CC(=[N+](CC)Cc3cccc(S(=O)(=O)[O-])c3)C=C2)c2ccc(S(=O)(=O)O)cc2)cc1 on rodent lifetime carcinogenesis bioassay, tumor incidence TD50?
## Result 148000

====

- Tested on: rodent lifetime carcinogenesis bioassay, tumor incidence TD50
- assay protocol: carcinogenic potency in animals, long-term in vivo studies, CPDB compilation (AID 1745844)
- condition: mouse; strain B6AKF1; males; oral dosing; site: subcutaneous tissue; lesion: fibrosarcoma; dosed 76 weeks; study length 76 weeks
parameter: TD50 (mg/kg/day)
Could you give me the number in mg/kg/day? Just the number is fine.

## Task Using the record for CCN(CC)C(=S)SSC(=S)N(CC)CC , report its TD50.
## Result 15.4

====

- System: rodent lifetime carcinogenesis bioassay, tumor incidence TD50
- assay protocol: carcinogenic potency in animals, long-term in vivo studies, CPDB compilation (AID 1745844)
- condition: rat; strain Sprague-Dawley; females; in feed; site: mammary gland; lesion: several types; types named in the paper; dosed 46 weeks; study length 57 weeks
parameter: TD50

## Task What measured TD50 is associated with NNc1nc(-c2ccc([N+](=O)[O-])o2)cs1 on rodent lifetime carcinogenesis bioassay, tumor incidence TD50?
## Result 2.83 mg/kg/day

====

- Test system: rodent lifetime carcinogenesis bioassay, tumor incidence TD50
- assay protocol: carcinogenic potency in animals, long-term in vivo studies, CPDB compilation (AID 1745844)
- condition: rat; strain Sprague-Dawley; females; i.p.; site: any site (literature study); lesion: malignant tumor; dosed 88 weeks; study length 114 weeks
parameter: TD50

## Task Using the record for O=C[C@H](NC(=O)N(CCCl)N=O)[C@@H](O)[C@H](O)[C@H](O)CO , report its TD50.
## Result 0.108 mg/kg/day
